Assay: Apparent (surface) pKa of the LNP formulation (TNS assay)
Assay type: physicochemical
Conditions: Table 1A
Please note: met applies when pKa is 7 or greater, and not met applies otherwise.

Worked examples, 3 molecules total:
CCCCCCCCCOC(=O)CCCCCCCN(CCCCCCCC(=O)OC(CCCCCCCC)CCCCCCCC)C[C@@H](C)O | not met
CCCCCCCCCOC(=O)CCCCCCCN(CCCCCCCC(=O)OC(CCCCCCCC)CCCCCCCC)CCCOC | not met
CCCCCCCCCOC(=O)CCCCCCCN(CCCCCCCC(=O)OC(CCCCCCCC)CCCCCCCC)CCCNC(=O)N(C)C | met

Q: Does the molecule CCCCCCCCCOC(=O)C(C)CCCCCCN(CCO)CCCCCCCOC(=O)C(CCCCCCCC)CCCCCCCC (stereo not shown) have recorded pKa that is 7 or more?
Result: not met

Q: Does the molecule `CCCCCCCCCOC(=O)CCCCCCCN(CCCCCCCC(=O)OC(CCCCCCCC)CCCCCCCC)CCCN/C(=N/C#N)N(C)C` have recorded pKa that is 7 or more?
Result: not met

Q: Does the molecule `CCCCCCCCCOC(=O)CCCCCCCN(CCCCCCCC(=O)OC(CCCCCCCC)CCCCCCCC)CCCn1cc(CO)nn1` have recorded pKa that is 7 or more?
Result: not met

----------
Test: Particle size and polydispersity index of nanoparticle compositions (Zetasizer Nano ZS)
Type: physicochemical
Conditions: Table 1A; lipid:DSPC:cholesterol:PEG-DMG 50:10:38.5:1.5 mol %
measurement type: Size (nm)
Write it as a number; the unit nm goes unstated.

Q: Return the recorded Size (nm) value; entry: CCCCCCCCCOC(=O)CCCCCCCN(CCCCCCCC(=O)OC(CCCCCCCC)CCCCCCCC)CC(O)CC (stereo not shown)
Result: 79.4

Q: Return the recorded Size (nm) value; entry: `CCCCCCCCCOC(=O)CCCCCCCN(CCCCCCCC(=O)OC(CCCCCCCC)CCCCCCCC)CCCN/C(=N/[N+](=O)[O-])NC`
Result: 76.2

Q: Return the recorded Size (nm) value; entry: CCCCCCCCCOC(=O)CCCCCCCN(CCCCCCCC(=O)OC(CCCCCCCC)CCCCCCCC)CC(C)O (stereo not shown)
Result: 102.9

Q: Return the recorded Size (nm) value; entry: `CCCCCCCCCOC(=O)CCCCCCCN(CCO)CCCCCCCC(=O)OC(CCCCCC)CCCCCC`
Result: 112.1

Q: Return the recorded Size (nm) value; entry: `CCCCCCCCCC(=O)OCCCCCCCN(CCO)CCCCCCCC(=O)OC(CCCCCCCC)CCCCCCCC`
Result: 120.5

Q: Return the recorded Size (nm) value; entry: CCCCCCCCCOC(=O)CCCCCCCN(CCCCCCCC(=O)OC(CCCCCCCC)CCCCCCCC)CC(O)CO (stereo not shown)
Result: 77.2

Q: Return the recorded Size (nm) value; entry: `CCCCCCCCCOC(=O)CCCCCCCN(CCCCCCCC(=O)OC(CCCCCCCC)CCCCCCCC)CCCNC(=O)COC`
Result: 104.2

----------
System: IL-6, IP-10
Assay: Cytokine induction in mice upon intravenous administration
Assay type: in vivo
Settings: i.v., 0.5 mpk, 6 hours, in words
measurement type: IL-6 induction

CCCCCCCCC(CCCCCCCC)OC(=O)CCCCCCCN(CCO)CCCCCCCC(=O)OCC1CC1CCCCCC (stereo not shown) | lowest
CCCCCCCCCOC(=O)CCCCCCCN(CCCCCCCC(=O)OC(CCCCCCCC)CCCCCCCC)C[C@H](C)O | lowest
CCCCCCCCCOC(=O)CCCCCCCN(CCCCCCCC(=O)OC(CCCCCCCC)CCCCCCCC)C[C@@H](C)O | lowest
